Biological target: wild-type Androgen Receptor (AR-wt) (Homo sapiens (Human))
Sequence (P10275 whole entry): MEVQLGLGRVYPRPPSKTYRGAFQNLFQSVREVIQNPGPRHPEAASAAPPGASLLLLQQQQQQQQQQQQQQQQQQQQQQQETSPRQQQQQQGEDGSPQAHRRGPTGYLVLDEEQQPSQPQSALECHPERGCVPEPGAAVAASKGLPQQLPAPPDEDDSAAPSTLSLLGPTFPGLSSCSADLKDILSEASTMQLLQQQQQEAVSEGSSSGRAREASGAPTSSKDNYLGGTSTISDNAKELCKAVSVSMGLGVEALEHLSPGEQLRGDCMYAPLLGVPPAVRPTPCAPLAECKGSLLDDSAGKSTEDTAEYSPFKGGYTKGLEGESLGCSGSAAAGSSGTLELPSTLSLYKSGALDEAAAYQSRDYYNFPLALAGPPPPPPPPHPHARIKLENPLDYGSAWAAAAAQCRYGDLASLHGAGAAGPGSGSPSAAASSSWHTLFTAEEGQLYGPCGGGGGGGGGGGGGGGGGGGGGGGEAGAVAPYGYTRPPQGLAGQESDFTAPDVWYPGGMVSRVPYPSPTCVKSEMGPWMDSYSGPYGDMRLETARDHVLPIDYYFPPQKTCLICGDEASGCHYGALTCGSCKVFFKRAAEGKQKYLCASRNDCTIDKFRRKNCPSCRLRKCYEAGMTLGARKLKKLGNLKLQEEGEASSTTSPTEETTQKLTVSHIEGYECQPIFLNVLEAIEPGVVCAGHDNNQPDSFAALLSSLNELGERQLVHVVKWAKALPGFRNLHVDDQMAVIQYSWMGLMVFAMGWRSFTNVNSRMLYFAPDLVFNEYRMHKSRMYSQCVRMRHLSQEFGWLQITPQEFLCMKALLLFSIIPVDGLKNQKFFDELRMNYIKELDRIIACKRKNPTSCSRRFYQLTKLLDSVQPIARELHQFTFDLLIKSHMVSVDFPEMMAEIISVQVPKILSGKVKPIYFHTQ
Assay: LNCaP-AR-wt ANT reporter assay (antagonist mode)
Type: cell-based
Details: antagonist mode; maximum % inhibition of R1881 control response over tested concentration range; read-out: LNCaP-AR-wt ANT MAX % Inh
measured.endpoint: Emax (%)
Record the value in %, omitting the unit from your answer.

Quick check: Emax of CN(C)C1(COc2ccc(N3C(=S)N(c4cnc(C#N)c(C(F)(F)F)c4)C(=O)C34CCC4)cc2)COC1 ?
103

Quick check: Emax of CN1CCC[C@@H](CNC(=O)c2ccc(N3C(=S)N(c4cnc(C#N)c(C(F)(F)F)c4)C(=O)C34CCC4)cc2F)C1 ?
99.6

Quick check: Emax of COc1cc(N2C(=O)C3(CCC3)N(c3ccc4c(cnn4C4CCNCC4)c3)C2=S)cnc1C#N ?
101

Quick check: Emax of COc1cc(N2C(=O)C3(CCC3)N(c3ccc4c(cnn4C4CCN(CCO)CC4)c3)C2=S)cnc1C#N ?
101

Quick check: Emax of CN1CCC(NC(=O)c2ccc(N3C(=S)N(c4cnc(C#N)c(C(F)(F)F)c4)C(=O)C34CCC4)cc2)C1 (stereo not shown) ?
101

Quick check: Emax of CN1CCC(n2ccc3cc(N4C(=S)N(c5cnc(C#N)c(C(F)(F)F)c5)C(=O)C45CCC5)ccc32)CC1 ?
0

Quick check: Emax of COc1cc(N2C(=O)C3(CCC3)N(c3ccc(CC4CCN(C)CC4)cc3)C2=S)cnc1C#N ?
103
